# Tested on: EKVX NSCLC
# measurement-protocol: NCI-60 one-dose screen, 48 h (100 = growth as untreated, 0 = no growth, -100 = all killed)
# assay-context: 10 µM unless noted
# Method: Growth inhibition of the EKVX human Non-Small Cell Lung tumor cell line is measured as a screen for anti-cancer activity. Cells are grown in 96 well plates and exposed to the test compound for 48 hours. Compounds are tested at a single concentration, which is 10^-5 M for most compounds. The reported endpoint is percent growth (GI% or GIPRCNT), where numbers from 0 - 100% represent growth inhibition, and numbers from -100% - 0 represent cell death. […]
Compounds without any hit were thinned out: in the full panel of roughly 83,000, 20% have a hit. Calls of active or inactive are those of the source. How the source made its calls: active means growth percent below 10; inactive means the rest.
measured-parameter: growth

{"columns": ["compound", "result"],
 "data": [
  ["Oc1cccc(CCc2ccc(Oc3cc(CCc4cccc(O)c4)cc(O)c3O)cc2)c1", "85.1% (inactive)"],
  ["COc1cc2c(c(O)c1Cl)C(=O)c1c(O)cc(C[C@H](C)O)cc1[C@H]2[C@H]1c2cc(C[C@H](C)O)cc(O)c2C(=O)c2c1cc(OC)c(Cl)c2O", "13.5% (inactive)"],
  ["Cc1cc(Cl)nc(N(CCNc2ccnc3cc(Cl)ccc23)Cc2ccccn2)n1", "61.4% (inactive)"],
  ["Nc1n[nH]c2cccc(C#Cc3cccc(C(=O)Nc4cccc(C(F)(F)F)c4)c3)c12", "89.7% (inactive)"],
  ["Cc1ccc(-c2[nH][nH]c(=O)c2-c2nc3ccccc3s2)cc1", "97.4% (inactive)"],
  ["Cc1ccc(/C=N/NC(=O)CSc2nc3ccccc3c(=O)n2Cc2ccc(S(N)(=O)=O)cc2)cc1", "90.8% (inactive)"],
  ["O=C(/C=C/c1ccc(F)cc1)c1ccc(NC(=O)N2CCN(c3cc4c(cc3F)c(=O)c(C(=O)O)cn4C3CC3)CC2)cc1", "94.5% (inactive)"],
  ["O=C(/C(=C\\c1ccc([N+](=O)[O-])cc1)S(=O)Cc1ccc(F)cc1)c1ccc(F)cc1 (stereo unspecified)", "84.2% (inactive)"],
  ["CC/C(=C\\c1ccc(OC)cc1)C(=O)c1ccc(OC)cc1", "103% (inactive)"],
  ["CN1[C@@H]2CC[C@H]1/C(=C\\c1ccccc1)C(=O)/C2=C/c1ccccc1", "69.4% (inactive)"],
  ["COCc1cnccc1NC1CCCCCC1", "102% (inactive)"],
  ["COc1ccc(C(=O)c2cc(C)c(OC)c(C)c2)c(OC)c1NC(C)=O", "56% (inactive)"],
  ["COc1ccc(C(=O)CC#N)cc1", "126% (inactive)"],
  ["O=S(=O)(NCCNc1nccc(-c2c(-c3cccc(O)c3)nc3occn23)n1)c1ccc(Cl)cc1", "125% (inactive)"],
  ["Cc1ncc(C(=O)Nc2ccc(CN3CCN(C)CC3)c(C(F)(F)F)c2)cc1C#Cc1cnc(N)cc1C#N", "57.5% (inactive)"],
  ["O=C1Nc2cc(-c3ccc(NC(=O)c4ccccc4)cc3)ccc2/C1=C/c1ccc[nH]1", "51.1% (inactive)"],
  ["C[C@H]1[C@H](C)CC[C@]2(C(=O)Nc3ccc4ncccc4c3)CC[C@]3(C)C(=CC[C@@H]4[C@@]5(C)CCCNC(C)(C)[C@@H]5CC[C@]43C)[C@H]12", "76.6% (inactive)"],
  ["O=c1[nH]nc(-c2ccccc2)c2sc3ncc(-c4ccc(Br)cc4)n3c12", "67.3% (inactive)"],
  ["CCN(CC)CC[n+]1cc2cc(OC)c(OC)cc2c2ccc3cc4c(cc3c21)OCO4", "17.5% (inactive)"],
  ["CCCCCCCCO/N=C\\c1c2c(O)c3c(O)c(C)c4c(c3c1O)C(=O)C(C)(O/C=C\\C(OC)C(C)C(OC(C)=O)C(C)C(O)C(C)C(O)C(C)/C=C\\C=C(\\C)C(=O)N2)O4 (stereo unspecified)", "22.5% (inactive)"],
  ["CC(=O)O[C@@H]1C2CCC3C(CC[C@@]4(C)C3CC[C@@H]4C(C)N(C)C)[C@@]2(C)CC[C@@H]1NC(=O)C=C(C)C (stereo partly specified)", "30.8% (inactive)"],
  ["Cc1nnc2c(Cc3ccccc3)nc3ccccc3n12", "90.9% (inactive)"],
  ["N#C/C(=C\\c1ccc([N+](=O)[O-])s1)c1nc2cc(Br)ccc2s1", "-30.8% (active)"],
  ["[O-][n+]1c(Cl)cc(Cl)c2ccccc21", "76.9% (inactive)"],
  ["Cc1c(C(=O)NCCC(=O)NO)sc2ncnc(Nc3ccc(F)c(Cl)c3)c12", "99.4% (inactive)"],
  ["CC1=C(C(=O)/C=C/c2ccc(N(C)C)cc2)C(c2ccccc2)NC(=S)N1 (stereo unspecified)", "97.7% (inactive)"],
  ["N/C(=N\\C(N)=N\\c1nc2ccccc2s1)c1cccc(Cl)c1", "83.3% (inactive)"],
  ["CC(C)c1ccc(Nc2ccc3c(OCCCN4CCN(C)CC4)cccc3n2)cc1", "80.7% (inactive)"],
  ["COc1cc(NC(C)CCCNC(=O)CCC(=O)NCCCNCCCCCCCCCCNCCCNC(=O)CCC(=O)NCCCC(C)Nc2cc(OC)cc3cccnc23)c2ncccc2c1 (stereo unspecified)", "73.7% [8 µM] (inactive)"],
  ["CC[C@]12C=CCN3CC[C@@]4(c5cc(NC(=O)CCC(=O)O[C@H]6CC[C@H]7[C@@H]8CCC9=CC(=O)CC[C@@H]9[C@H]8CC[C@]67C)c(OC)cc5N(C)[C@H]4[C@@](O)(C(=O)OC)[C@@H]1OC(C)=O)[C@@H]32", "73.4% (inactive)"],
  ["O=c1ccc(-c2nc(N3CCOCC3)c3ccccc3n2)c[nH]1", "59.2% (inactive)"],
  ["O=C(Nc1ccc(NC(=O)c2cc(=O)[nH]c3ccccc23)cc1)Nc1cccc(Cl)c1", "85.2% (inactive)"],
  ["N#Cc1c(NCc2ccccc2I)sc2c1CCCCC2", "78.8% (inactive)"],
  ["Cc1ccc(C(=O)/C(=C\\c2ccc([N+](=O)[O-])cc2)S(=O)Cc2ccc(Cl)cc2)cc1 (stereo unspecified)", "82.4% (inactive)"],
  ["O=S(=O)(NCCNc1nccc(-c2c(-c3cccc(F)c3)nc3sccn23)n1)c1ccc(Cl)cc1", "66.3% (inactive)"],
  ["COc1ccc(/C=C2\\COc3ccc(-c4ccccc4)cc3C2=O)c(OC)c1", "161% (inactive)"]
]}

====

# Tested on: HOP-92 NSCLC
# measurement-protocol: NCI-60 one-dose screen, 48 h (100 = growth as untreated, 0 = no growth, -100 = all killed)
# assay-context: 10 µM unless noted
This is part of a sample that, as a whole, favours compounds with a hit. Of some 83,000 tested, about 20% had one in any assay. Activity calls are given as the source filed them. How the source made its calls: active means growth percent below 10; inactive means the rest.
measured-parameter: growth

{"columns": ["structure-string", "target-desc", "result"],
 "data": [
  ["CCCCCN1C=C/C(=C\\C(=O)N2CCCc3ccccc32)c2ccccc21", "HOP-92 NSCLC", "73.5% (inactive)"],
  ["Nc1n[nH]c2cccc(C#Cc3cccc(C(=O)Nc4cccc(C(F)(F)F)c4)c3)c12", "HOP-92 NSCLC", "58.6% (inactive)"],
  ["O=C(/C=C/c1ccc(F)cc1)c1ccc(NC(=O)N2CCN(c3cc4c(cc3F)c(=O)c(C(=O)O)cn4C3CC3)CC2)cc1", "HOP-92 NSCLC", "88.5% (inactive)"],
  ["C=C1C(=O)O[C@H]2[C@H]1CC/C(CNC(=O)CCc1ccc(OC)cc1)=C\\CC[C@@]1(C)O[C@@H]21", "HOP-92 NSCLC", "19.8% (inactive)"],
  ["N/C(=N\\C(N)=N\\c1nc2ccccc2s1)c1cnccn1", "HOP-92 NSCLC", "47% (inactive)"],
  ["CCCN1[C@@H]2CC[C@H]1/C(=C\\c1ccc(OC)c(OC)c1)C(=O)/C2=C/c1ccc(OC)c(OC)c1", "HOP-92 NSCLC", "39.8% (inactive)"],
  ["N#Cc1cc(-c2nc3ccccc3s2)c(=O)n(NS(=O)(=O)c2ccccc2)c1N", "HOP-92 NSCLC", "104% (inactive)"],
  ["CN(C)CCn1c2ccc(Br)cc2c2nc3ccccc3nc21", "HOP-92 NSCLC", "49.6% (inactive)"],
  ["COc1cc(CC(=O)c2ccc(O)c(OC)c2)ccc1O", "HOP-92 NSCLC", "84.5% (inactive)"],
  ["C#Cc1cccc(NC(=O)Nc2cccc(NC(=O)CCl)c2)c1", "HOP-92 NSCLC", "-53.1% [8.25 µM] (active)"]
]}

====

# System: MCF7 breast
# measurement-protocol: NCI-60 one-dose screen, 48 h (100 = growth as untreated, 0 = no growth, -100 = all killed)
# assay-context: 10 µM unless noted
Compounds without any hit were thinned out: in the full panel of roughly 83,000, 20% have a hit.

{"columns": ["compound", "units-symbol", "growth"],
 "data": [
  ["CCCOC(=O)N[C@H]1CCc2cc(OC)c(OC)c(OC)c2-c2ccc(SC)c(=O)cc21", "%", 15.6],
  ["Cn1c(N2NC(=O)C(N=Nc3ccc(S(N)(=O)=O)cc3)C2=O)nc(-c2ccco2)c(C#N)c1=O (centres undefined)", "%", 68],
  ["CNCCn1c(=O)c2cc(OC)c(OC)cc2c2ccc3cc4c(cc3c21)OCO4", "%", 7.12],
  ["O=C(NCCNc1nccc(-c2c(-c3cccc(F)c3)nc3sccn23)n1)c1ccc(Cl)cc1", "%", 27.7],
  ["C=C1C(=O)O[C@H]2[C@H]1CC/C(COC(=O)NCc1c[nH]c3ccc(F)cc13)=C\\CC[C@@]1(C)O[C@@H]21", "%", 22.4],
  ["[O-][n+]1c(Cl)cc(Cl)c2ccccc21", "%", 97.4],
  ["O=S(=O)(NCCNc1nccc(-c2c(-c3cccc(O)c3)nc3occn23)n1)c1ccc(C(F)(F)F)cc1", "%", 67.2],
  ["CC(C)=CCC[C@](C)(O)[C@H]1CC[C@]2(C)[C@@H]1CC[C@@H]1[C@@]3(C)C/C(=C/c4ccccc4)C(=O)C(C)(C)[C@@H]3CC[C@]12C", "%", 94.6],
  ["COc1ccc(-c2nc3sccn3c2/C=C/C(=O)c2ccc3c(c2)OCO3)cc1", "%", -7.62]
]}
